The origin of these recorded values is patent US20180021429A1.

- assayed-target: T1, human FSTL1 (construct not stated) (human, UniProt Q12841 21-308)
- T1 construct: also called human FSTL1 antigen; FSTL1 (R&D Systems, Inc. Cat#1694-FN-050)
- T1 sequence: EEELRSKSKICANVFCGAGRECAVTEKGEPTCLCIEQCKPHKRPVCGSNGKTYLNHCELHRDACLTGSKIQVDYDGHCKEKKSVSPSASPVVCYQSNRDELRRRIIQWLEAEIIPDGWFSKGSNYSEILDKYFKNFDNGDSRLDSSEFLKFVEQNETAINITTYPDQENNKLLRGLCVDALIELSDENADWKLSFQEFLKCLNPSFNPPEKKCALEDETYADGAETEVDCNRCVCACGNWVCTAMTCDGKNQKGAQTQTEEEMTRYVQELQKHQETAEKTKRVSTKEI
- protocol: SPR (Biacore T-200), captured antibody, human FSTL1 10 µg/ml
reported-endpoint: Binding amount (RU)
One number for each entry, in RU.

[
  {
    "binder": "anti-FSTL1 antibody clone #5-10 (chicken-mouse chimeric antibody) (antibody, mouse IgG1, V domains shown) VH: AVTLDESGGGLQTPGGGLSLVCKGSGFTLSSFNMFWVRQAPGKGLEWVAGVGKDGGTTYGAAVDGRATISRDSGQSTVRLQLNDLRAEDTGTYFCAKAAGGCSYSWCGAYVGDLDAWGHGTEVIVSS VL: ASTQPSSVSANPGETVKITCSGGGSYVGSYYYGWYQQKSPGSAPVTVIYNNNQRPSDIPSRFSGSKSGSTATLTITGVQAEDEAVYFCGGYDSSAGGIFGAGTTLTVLG",
    "Binding amount (RU)": 9.8
  }
]

Sure, the documented Binding amount (RU) for anti-FSTL1 antibody clone #5-8 (chicken-mouse chimeric antibody) (antibody, mouse IgG1, kappa, V domains shown) VH: AVTLDESGGGLQTPGGGLSLVCKGSGFTFSSFNMFWVRQAPGKGLEWVAGIGKDGVPKYGTAVDGRATISKDNGQSTMRLQLNNLRAEDTGTYFCAKAAGGCSYDWCGIYTGDIDTWGHGTEVIVSS VL: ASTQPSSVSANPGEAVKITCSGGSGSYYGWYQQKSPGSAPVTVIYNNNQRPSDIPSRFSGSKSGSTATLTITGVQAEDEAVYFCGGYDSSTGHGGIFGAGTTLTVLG is 6.7
